# pIC50 annotations
Molecular target: PYY receptor of rat jejunal epithelial plasma membranes (rat)
Experiment: competition with 0.05 nM 125I-PYY on rat jejunal epithelial plasma membranes
Ends that are not written are not given here.
pIC50 (log units): -log10 of the concentration in mol/L.

Consider the binder shown here: ASLRHYLNLVARQRY-NH2 [[Ala^32 ]PYY(22-36)] What is its recorded pIC50?
7.15

More entries:
Consider the binder shown here: Ac-ASLRHFLNLVTRQRY-NH2 [N-α-Ac-[Phe^27 ]PYY(22-36)] What is its recorded pIC50?
9.10

What about this binder? Ac-ASLRHYENLVTRQRY-NH2 [N-α-Ac-[Glu^28 ]PYY(22-36)]
7.35

What about this binder? ASLRHYENLVTRQRY-NH2 [[Glu^28 ]PYY(22-36)]
6.70
